Listed compounds paired with reported Ki
Target protein (sequence): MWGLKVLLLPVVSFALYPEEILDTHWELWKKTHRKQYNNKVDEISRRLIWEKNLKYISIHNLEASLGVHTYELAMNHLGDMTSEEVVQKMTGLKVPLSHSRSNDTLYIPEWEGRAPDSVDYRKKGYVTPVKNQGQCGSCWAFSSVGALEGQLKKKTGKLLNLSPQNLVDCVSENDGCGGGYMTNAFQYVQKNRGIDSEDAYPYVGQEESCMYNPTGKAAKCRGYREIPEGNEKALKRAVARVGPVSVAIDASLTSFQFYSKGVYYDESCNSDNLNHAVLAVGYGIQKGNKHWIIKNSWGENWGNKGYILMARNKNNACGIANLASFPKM
Hi! Could you send only the number? It should be in µM, unit omitted.

>>> reported_value("N=c1scc(-c2ccccc2)n1CC(=O)N1CCN(c2ccccc2)CC1")
11.6
>>> reported_value("Cc1ccc(-c2csc(=N)n2CC(=O)N2CCN(C)CC2)cc1")
8.71
>>> reported_value("CN1CCN(C(=O)Cn2c(-c3ccc(Cl)cc3)csc2=N)CC1")
4.58

Prompt line: What Ki value was documented for this compound, "CC(=O)N1CCN(C(=O)Cn2c(-c3ccc(Cl)cc3)csc2=N)CC1" ?
Response line: 24.2

Prompt line: Which measured Ki value corresponds to "CN1CCN(C(=O)Cn2c(-c3ccccc3)csc2=N)CC1" ?
Response line: 6.22

Prompt line: Please give the measured Ki for this compound: "CC(=O)N1CCN(C(=O)Cn2c(-c3ccccc3)csc2=N)CC1"
Response line: 21.9
